- testedOn: human calcitonin receptor (CTR) (Homo sapiens, UniProt P30988)
- Sequence (P30988 25-474): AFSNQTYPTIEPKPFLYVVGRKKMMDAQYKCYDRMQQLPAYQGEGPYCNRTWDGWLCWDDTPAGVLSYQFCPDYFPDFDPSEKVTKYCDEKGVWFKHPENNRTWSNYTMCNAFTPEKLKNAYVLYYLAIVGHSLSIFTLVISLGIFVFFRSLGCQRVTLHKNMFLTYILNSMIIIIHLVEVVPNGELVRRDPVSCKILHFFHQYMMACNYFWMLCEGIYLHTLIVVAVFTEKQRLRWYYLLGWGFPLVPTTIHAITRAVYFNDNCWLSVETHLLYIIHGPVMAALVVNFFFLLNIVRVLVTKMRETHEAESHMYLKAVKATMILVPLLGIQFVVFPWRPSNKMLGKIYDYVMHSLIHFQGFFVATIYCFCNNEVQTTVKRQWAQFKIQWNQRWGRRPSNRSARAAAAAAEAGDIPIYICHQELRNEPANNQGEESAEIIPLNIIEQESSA
- assaySummary: Calcitonin Receptor (CTR) cAMP Assay
- conditionDetails: COS7-human CTR Clone #2 stable cell line, cAMP dynamic 2 kit, 30 min; read-out: Calcitonin Receptor cAMP Stimulation Activity: EC50
pEC50: −log10 of the molar value.
Label rule, in plain words: pEC50 of 9 and up is true, under 9 is false.

Below, 2 compounds whose answers are already recorded.
COc1cccc2c1CC(F)(F)[C@H]2Nc1nccc2cc(-c3c4c(nc(CCc5ccc(F)cc5)c3-c3n[nH]c(=O)o3)C35CC(CN3C4=O)C5)sc12 [Compound 281]
true
O=C1c2c(nc(CCc3ccc(F)cc3)c(-c3n[nH]c(=O)o3)c2-c2cc3ccnc(Cc4coc5ccccc45)c3s2)[C@@H]2CCCN12 [Compound 248]
false

Ask: Threshold query (pEC50 >= 9) on COc1c(F)c(F)cc2c1CC[C@H]2Nc1nccc2cc(-c3c4c(nc(CCc5ccc(F)cc5)c3-c3n[nH]c(=O)o3)C35CC(CN3C4=O)C5)sc12 [Compound 286]
Result: true

Ask: Threshold query (pEC50 >= 9) on COc1nccc2c1CC[C@H]2Nc1nccc2cc(-c3c4c(nc(CCc5ccc(F)cc5)c3-c3n[nH]c(=O)o3)C35CC(CN3C4=O)C5)sc12 [Compound 264]
Result: true

Ask: Threshold query (pEC50 >= 9) on N#Cc1ccc(Cn2c(=O)oc3cc(-c4c5c(nc(CCC6CCOCC6)c4-c4cc(=O)[nH]o4)[C@@H]4CCCN4C5=O)ccc32)cc1F [Compound 203]
Result: false

Ask: Threshold query (pEC50 >= 9) on COc1cccc2c1CC[C@H]2Nc1nccc2cc(-c3c4c(nc(CCc5ccc(F)cc5)c3-c3n[nH]c(=O)o3)[C@H]3CCCN3C4=O)sc12 [Compound 229]
Result: false

Ask: Threshold query (pEC50 >= 9) on COc1c(F)c(F)cc2c1CC[C@H]2Nc1nc(C)cc2cc(-c3c4c(nc(CCc5ccc(F)cc5)c3-c3n[nH]c(=O)o3)C35CC(CN3C4=O)C5)sc12 [Compound 195]
Result: true

Ask: Threshold query (pEC50 >= 9) on O=C1c2c(nc(CCc3ccc(F)cc3)c(-c3n[nH]c(=O)o3)c2-c2cc3ccnc(N[C@@H]4CCOc5c(F)cc(F)cc54)c3s2)C23CC(CN12)C3 [Compound 293]
Result: true

Ask: Threshold query (pEC50 >= 9) on O=C1c2c(nc(CCc3ccc(F)cc3)c(-c3noc(=O)[nH]3)c2-c2ccc3c(c2)CCCN3CCc2ccc(F)c(F)c2)[C@@H]2CCCN12 [Compound 114]
Result: false

----------
- testedOn: COS-7/AMY3 (human calcitonin receptor (CTR) and RAMP3) (Homo sapiens, UniProt O60896+P30988)
- Construct: expressed in transfected cells; host or cells: COS-7
- Sequence (P30988 25-474): as above
- Sequence (O60896 24-148): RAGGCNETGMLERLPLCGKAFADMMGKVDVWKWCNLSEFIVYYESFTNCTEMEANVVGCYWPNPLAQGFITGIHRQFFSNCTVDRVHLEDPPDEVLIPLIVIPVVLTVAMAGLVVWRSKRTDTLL
- assaySummary: Amylin Receptor cAMP Assay II
- Assay type: cell-based
- conditionDetails: values marked **: Amylin Receptor cAMP Assay II; COS-7/AMY3 cells, cAMP dynamic 2 kit, 30 min; read-out: Amylin Receptor cAMP Stimulation Activity: EC50
EC50 overview
Give the quantity in nM, number only.

O=C1c2c(nc(CCc3ccc(F)cc3)c(-c3n[nH]c(=O)o3)c2-c2cc3ccnc(N[C@@H]4CCc5cc(Cl)cnc54)c3s2)C23CC(CN12)C3
182
COc1cccc2c1CC[C@H]2Nc1nccc2cc(-c3c4c(nc(CCc5ccc(F)cc5)c3-c3cc(=O)[nH]o3)[C@@H]3CCCN3C4=O)sc12
25.4

Could you now look at the following molecule, please?
Ask: Output measured EC50 for this item: COc1c(F)ccc2c1CC[C@H]2Nc1nccc2cc(-c3c4c(nc(CCc5ccccc5F)c3-c3n[nH]c(=O)o3)C35CC(CN3C4=O)C5)sc12
Result: 1.57

----------
- testedOn: human calcitonin receptor (CTR) (Homo sapiens)
- Construct: expressed in transfected cells; host or cells: COS-7 (COS7-human CTR Clone #2)
- assaySummary: Calcitonin Receptor (CTR) cAMP Assay
- Format: cell-based
- conditionDetails: COS7-human CTR Clone #2 stable cell line, cAMP dynamic 2 kit, 30 min; read-out: Calcitonin Receptor cAMP Stimulation Activity: EC50
pEC50 overview
Hey, just a heads up that pEC50 is the negative log base 10 of the concentration in molar.

COc1c(F)ccc2c1CC[C@H]2Nc1ncnc2sc(-c3c4c(nc(CCc5ccc(F)cc5)c3-c3n[nH]c(=O)o3)C35CC(CN3C4=O)C5)cc12
9.83
COc1cccc2c1CC(F)(F)[C@H]2Nc1nccc2cc(-c3c4c(nc(CCc5ccc(F)cc5)c3-c3n[nH]c(=O)o3)[C@@H]3COCCN3C4=O)sc12
8.37
N#Cc1ccc(Cn2c(=O)oc3cc(-c4c(-c5n[nH]c(=O)o5)c(CCc5ccc(F)cc5)nc5c4S(=O)(=O)CC54CC4)ccc32)nc1
8.29
COc1cc(F)cc2c1CC[C@H]2Nc1nccc2cc(-c3c4c(nc(CCc5ccc(F)cc5)c3-c3n[nH]c(=O)o3)[C@@H]3CCCN3C4=O)sc12
9.77
COc1cccc2c1CC[C@H]2Nc1nccc2cc(-c3c(-c4n[nH]c(=O)o4)c(CCc4ccc(F)cc4)nc4c3S(=O)(=O)N3CCC[C@@H]43)sc12
9.13

Could you now look at the following compound, please?
Ask: Output measured pEC50 for this item: COc1cccc2c1CC[C@H]2Nc1nccc2cc(-c3c4c(nc(CCc5ccc(C6CC6)cc5)c3-c3noc(=O)[nH]3)[C@@H]3CCCN3C4=O)sc12
Result: 8.36

----------
- testedOn: COS-7/AMY3 (human calcitonin receptor (CTR) and RAMP3) (Homo sapiens, UniProt O60896+P30988)
- Construct: expressed in transfected cells; host or cells: COS-7
- assaySummary: Amylin Receptor cAMP Assay II
- Type: cell-based
- conditionDetails: values marked **: Amylin Receptor cAMP Assay II; COS-7/AMY3 cells, cAMP dynamic 2 kit, 30 min; read-out: Amylin Receptor cAMP Stimulation Activity: EC50
pEC50: −log10 of the molar value.
Label rule, in plain words: pEC50 of 9 and up is Condition met, under 9 is Condition not met.

CC(C)C1CS(=O)(=O)c2c1nc(CCc1ccc(F)cc1)c(-c1n[nH]c(=O)o1)c2-c1ccc2c(c1)oc(=O)n2Cc1ccc(C#N)cn1 (centres unmarked)
Condition not met
COc1c(F)ccc2c1C[C@@H](F)[C@H]2Nc1nccc2cc(-c3c4c(nc(CCc5ccc(F)cc5)c3-c3n[nH]c(=O)o3)C35CC(CN3C4=O)C5)sc12
Condition met
COc1cc(F)cc2c1CC[C@H]2Nc1nccc2cc(-c3c4c(nc(CCc5ccc(F)cc5)c3-c3n[nH]c(=O)o3)[C@@H]3CCCN3C4=O)sc12
Condition not met

Kindly review the next compound as well.
Ask: Threshold query (pEC50 >= 9) on COc1cccc2c1CC[C@H]2Nc1nccc2cc(-c3c4c(nc(C[C@H]5CCc6cc(F)ccc65)c3-c3n[nH]c(=O)o3)[C@@H]3CCCN3C4=O)sc12
Result: Condition not met

----------
- testedOn: COS-7/AMY3 (human calcitonin receptor (CTR) and RAMP3) (Homo sapiens, UniProt O60896+P30988)
- Construct: expressed in transfected cells; host or cells: COS-7
- assaySummary: Amylin Receptor cAMP Assay II
- Assay type: cell-based
- conditionDetails: values marked **: Amylin Receptor cAMP Assay II; COS-7/AMY3 cells, cAMP dynamic 2 kit, 30 min; read-out: Amylin Receptor cAMP Stimulation Activity: EC50
measurementLabel: EC50 (nM)
Give the quantity in nM, number only.

Look over these answered cases.
O=C1c2c(nc(CCc3ccc(F)cc3)c(-c3n[nH]c(=O)o3)c2-c2ccc3c(c2)oc(=O)n3Cc2ncc(Cl)cc2F)[C@@H]2CCCN12
74.4
COc1c(F)ccc2c1CC(F)(F)[C@@H]2Nc1nccc2cc(-c3c4c(nc(CCc5ccc(F)cc5)c3-c3n[nH]c(=O)o3)C35CC(CN3C4=O)C5)sc12
298
N#Cc1ccc(Cn2c(=O)oc3cc(-c4c(-c5n[nH]c(=O)o5)c(CCc5ccc(F)cc5)nc5c4S(=O)(=O)N4CCC[C@@H]54)ccc32)nc1
53.1
COc1cccc2c1CC[C@H]2Nc1nccc2cc(-c3c(-c4n[nH]c(=O)o4)c(CCc4ccc(F)cc4)nc4c3c(=O)n3n4CCC3)sc12
33.5
COc1cccc2c1CC[C@H]2Nc1nc(C(F)(F)F)cc2cc(-c3c4c(nc(CCc5ccc(F)cc5)c3-c3n[nH]c(=O)o3)[C@@H]3CCCN3C4=O)sc12
7.23

Could you now look at the following molecule, please?
Ask: Output measured EC50 for this item: Cc1cc2cc(-c3c4c(nc(CCc5ccc(F)cc5)c3-c3n[nH]c(=O)o3)[C@@H]3COCCN3C4=O)sc2c(N[C@@H]2CCc3cc(F)c(F)cc32)n1
Result: 0.707
